Data credit: paper PMC9503977

assay: Brine shrimp lethality bioassay (cytotoxicity); settings: in vivo, other: exposure of nauplii in simulated seawater, pH 8, from linear regression, 400–0.78125 μg/mL
Threshold-based label: LC50 under 1 µg/mL gives YES, LC50 not under 1 µg/mL gives NO.

compound | assignedLabel
CC[C@H](CC[C@@H](C)[C@H]1CC[C@H]2[C@@H]3CC=C4C[C@@H](O)CC[C@]4(C)[C@H]3CC[C@]12C)C(C)C | NO
COc1cc(CC(C)CO)ccc1O (centres unmarked) | NO
CC[C@H](/C=C/[C@@H](C)[C@H]1CC[C@H]2[C@@H]3CC=C4C[C@@H](O)CC[C@]4(C)[C@H]3CC[C@]12C)C(C)C | NO
CC[C@]1(O)C[C@H]2CN(CCc3c([nH]c4ccccc34)[C@@](C(=O)OC)(c3cc4c(cc3OC)N(C=O)[C@H]3[C@@](O)(C(=O)OC)[C@H](OC(C)=O)[C@]5(CC)C=CCN6CC[C@]43[C@@H]65)C2)C1 [VS, Vincristine Sulphate] | YES
